- Tested on: 616215-338-R-J1-PDC spheroids with HUVEC/MSC, viability;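 further: spheroids exposed to agents for seven days before the viability read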
- procedure-details: Anticancer human tumor 616215-338-R-J1-PDC patient-derived colon adenocarcinoma cell line growth inhibition [PI3K]
- reported-conditions: second compound 0.316 µM; first compound 1 µM; stronger effect = lower value
reported-property: viability, T/C (%)
Respond numerically; units are % and should not be typed.

Examples with answers:
• CC(C)NCC(C(=O)N1CCN(c2ncnc3c2C(C)CC3O)CC1)c1ccc(Cl)cc1 (stereo unspecified) + Cc1nc(NC(=O)N2CCCC2C(N)=O)sc1-c1ccnc(C(C)(C)C(F)(F)F)c1 = 104
• Cn1ncc(Cl)c1-c1cc(C(=O)NC(CN)Cc2cccc(F)c2)sc1Cl (stereo unspecified) + CC(Nc1ccc2c(c1)OCCn1cc(N3C(=O)OCC3C(F)F)nc1-2)C(N)=O = 88.3
• CC1(C)CCC(CN2CCN(c3ccc(C(=O)NS(=O)(=O)c4ccc(NCC5CCOCC5)c([N+](=O)[O-])c4)c(Oc4cnc5[nH]ccc5c4)c3)CC2)=C(c2ccc(Cl)cc2)C1 + COc1c(OCCCN2CCOCC2)ccc2c3n(c(=NC(=O)c4cnc(N)nc4)nc12)CCN3 = 42.5
• C#Cc1c(F)ccc2cc(O)cc(-c3ncc4c(N5CC6CCC(C5)N6)nc(OCC56CCCN5CC(F)C6)nc4c3F)c12 (stereo unspecified) + Cc1nc(NC(=O)N2CCCC2C(N)=O)sc1-c1ccnc(C(C)(C)C(F)(F)F)c1 = 84.8
• CCN1CCN(Cc2ccc(Nc3ncc(F)c(-c4cc(F)c5nc(C)n(C(C)C)c5c4)n3)nc2)CC1 + CC(Nc1ncnc2nc[nH]c12)c1cc2cccc(Cl)c2c(=O)n1-c1ccccc1 = 106

GET /values?readout=viability, T/C&item= Cn1nccc1Nc1nccc(-c2ccn(C(CO)c3ccc(Cl)c(F)c3)c(=O)c2)n1 (stereo unspecified) + CC(Nc1ncnc2nc[nH]c12)c1cc2cccc(Cl)c2c(=O)n1-c1ccccc1
67.1
